species: Rattus norvegicus; assay: Dose required for Ulcerogenic effect; assay type: functional
Kindly supply the reported Dose values for the records listed here.
One number for each entry, in mg/kg.

Illustrative cases are given below, each with its answer.
smiles-string: COc1ccc2c(c1)c(CC(=O)O)c(C)n2C(=O)c1ccc(Cl)cc1
readout-units: mg/kg
quantitative-readout: 30
//
smiles-string: CCN1CC/C(=C\c2cc(C(C)(C)C)c(O)c(C(C)(C)C)c2)S1(=O)=O
readout-units: mg/kg
quantitative-readout: 400
//
smiles-string: NC(=O)N1C(=O)/C(=C(\O)c2cccs2)c2cc(Cl)ccc21
readout-units: mg/kg
quantitative-readout: 30
//
smiles-string: CC(C)(C)c1cc(/C=C2\CCN(C3CC3)S2(=O)=O)cc(C(C)(C)C)c1O
readout-units: mg/kg
quantitative-readout: 400

Okay, now this compound:
# Dose lookup, item CN1CC/C(=C\c2cc(C(C)(C)C)c(O)c(C(C)(C)C)c2)S1(=O)=O
400

* * *

Molecular target: Cyclooxygenase (Rattus norvegicus, UniProt P35355+Q63921)
Sequence (P35355 whole entry): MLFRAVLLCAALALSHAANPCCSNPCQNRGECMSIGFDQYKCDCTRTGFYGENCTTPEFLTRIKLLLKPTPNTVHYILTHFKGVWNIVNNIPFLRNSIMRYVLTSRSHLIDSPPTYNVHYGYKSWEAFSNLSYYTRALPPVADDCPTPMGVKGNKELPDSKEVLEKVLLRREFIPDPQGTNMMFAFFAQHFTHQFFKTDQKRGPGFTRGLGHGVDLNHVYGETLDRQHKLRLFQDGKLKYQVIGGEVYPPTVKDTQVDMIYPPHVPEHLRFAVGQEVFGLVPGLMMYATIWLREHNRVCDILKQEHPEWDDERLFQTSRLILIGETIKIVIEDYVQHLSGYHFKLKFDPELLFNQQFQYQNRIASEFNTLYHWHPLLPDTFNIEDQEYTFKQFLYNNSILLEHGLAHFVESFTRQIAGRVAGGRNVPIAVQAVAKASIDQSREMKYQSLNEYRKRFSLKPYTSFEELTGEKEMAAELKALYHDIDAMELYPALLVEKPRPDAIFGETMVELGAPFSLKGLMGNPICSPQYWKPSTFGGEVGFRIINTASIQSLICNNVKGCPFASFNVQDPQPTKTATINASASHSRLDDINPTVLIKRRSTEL
Sequence (Q63921 whole entry): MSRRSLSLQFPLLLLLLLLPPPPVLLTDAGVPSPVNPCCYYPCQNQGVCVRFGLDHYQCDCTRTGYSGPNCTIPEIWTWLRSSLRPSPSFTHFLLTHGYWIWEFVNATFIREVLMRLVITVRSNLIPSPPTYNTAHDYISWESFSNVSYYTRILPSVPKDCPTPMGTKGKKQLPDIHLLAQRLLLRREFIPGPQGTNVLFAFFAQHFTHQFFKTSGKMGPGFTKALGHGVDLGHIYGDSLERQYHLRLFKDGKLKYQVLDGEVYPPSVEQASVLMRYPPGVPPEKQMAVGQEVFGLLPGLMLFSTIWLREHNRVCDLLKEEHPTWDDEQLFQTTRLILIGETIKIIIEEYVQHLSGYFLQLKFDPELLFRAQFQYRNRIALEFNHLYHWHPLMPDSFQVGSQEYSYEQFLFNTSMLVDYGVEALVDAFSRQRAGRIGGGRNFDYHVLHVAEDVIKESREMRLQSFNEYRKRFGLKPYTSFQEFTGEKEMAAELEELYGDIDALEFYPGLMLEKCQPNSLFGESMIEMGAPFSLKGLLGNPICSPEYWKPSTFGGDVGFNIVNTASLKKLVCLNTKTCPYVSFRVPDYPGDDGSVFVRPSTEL
Field 'label' (enum: Satisfied / Not satisfied). Set to Satisfied when IC50 is strictly under 10 nM; else Not satisfied.

smiles-string: CN1CC/C(=C/c2cc(C(C)(C)C)c(O)c(C(C)(C)C)c2)S1(=O)=O
group: Satisfied
--
smiles-string: CC(C)(C)c1cc(/C=C2\CCN(c3ccc(Cl)cc3)S2(=O)=O)cc(C(C)(C)C)c1O
group: Satisfied
--
smiles-string: CC(C)(C)c1cc(/C=C2/CCNS2(=O)=O)cc(C(C)(C)C)c1O
group: Satisfied
--
smiles-string: CC(=O)N1CC/C(=C\c2cc(C(C)(C)C)c(O)c(C(C)(C)C)c2)S1(=O)=O
group: Satisfied

Please state whether IC50 is below 10 nM for CC(C)(C)c1cc(/C=C2\CCN(C(=O)NO)S2(=O)=O)cc(C(C)(C)C)c1O
Not satisfied

Please give the result for NC(=O)N1C(=O)/C(=C(\O)c2cccs2)c2cc(Cl)ccc21 too.
Not satisfied

Please give the result for CN1OCC/C(=C\c2cc(C(C)(C)C)c(O)c(C(C)(C)C)c2)S1(=O)=O too.
Not satisfied

Please give the result for CCN1CC/C(=C\c2cc(C(C)(C)C)c(O)c(C(C)(C)C)c2)S1(=O)=O too.
Satisfied

Please give the result for CCN1CC/C(=C/c2cc(C(C)(C)C)c(O)c(C(C)(C)C)c2)S1(=O)=O too.
Satisfied

Please give the result for CN1CC/C(=C\c2cc(C(C)(C)C)c(O)c(C(C)(C)C)c2)S1(=O)=O too.
Satisfied
